For each of the molecules below, state its solubility kinetic at 2 h.
# assay_comment: Kinetic solubility of the compound at pH 7.4 after 2 hrs by shake flask method-based HPLC-DAD analysis
# Format: physicochemical
# protocol_conditions: buffer, read-out: Kinetic_solubility
# number only, unit µM dropped from output

Request: Returns the measured solubility kinetic at 2 h for the input molecule. Input: Cc1cc(NCc2ncnn2C)n2nc(C)c(-c3ccccc3)c2n1
Result: 185

Request: Returns the measured solubility kinetic at 2 h for the input molecule. Input: Cc1cc(NCc2cnccn2)n2nc(C)c(-c3ccccc3)c2n1
Result: 7.1

Request: Returns the measured solubility kinetic at 2 h for the input molecule. Input: Cc1cc(NCCCc2ccccn2)n2nc(C)c(-c3ccccc3)c2n1
Result: 5.9

Request: Returns the measured solubility kinetic at 2 h for the input molecule. Input: Cc1cc(NCc2ccccn2)n2ncc(-c3ccc(F)cc3C)c2n1
Result: 42.3

Request: Returns the measured solubility kinetic at 2 h for the input molecule. Input: Cc1cc(NCc2ccccn2)n2ncc(-c3ccncc3)c2n1
Result: 161

Request: Returns the measured solubility kinetic at 2 h for the input molecule. Input: CCN1CCCC1CNc1cc(C)nc2c(-c3ccccc3)c(C)nn12 (stereo not drawn)
Result: 172

Request: Returns the measured solubility kinetic at 2 h for the input molecule. Input: Cc1cc(NCc2ccccn2)n2ncc(-c3cccc(N)c3)c2n1
Result: 160

Data origin, for the record: ChEMBL document CHEMBL3627697
